target-system: CaMyo5
assay-info: SPOT peptide array binding signal intensity (averaged, normalized) (arbitrary units (background-subtracted, floor 0; scale differs between SH3 domains)); higher = stronger binding of the SH3 domain to the peptide
Output: class label from SPOT peptide array binding signal intensity. Mapping: low class = under 2, middle class = from 2 up to 30, high class = 30 and over

Study these solved cases before continuing.
{"binder": "TPTSGPPLLPPRNTM", "assigned-category": "high class"}
{"binder": "LFMKGTPEFPKSGFS", "assigned-category": "high class"}
{"binder": "LKRITSPPLPPRADS", "assigned-category": "middle class"}
{"binder": "RKRRTHLRLPLIRSN", "assigned-category": "low class"}
{"binder": "MKRSRPSRSIPYTTP", "assigned-category": "middle class"}
{"binder": "DRIRMFIRFPKFLLE", "assigned-category": "high class"}

Ask | Which SPOT peptide array binding signal intensity band matches QFDLKMPSKPIHNLK ?
Reply | middle class

Ask | Category of QRIRKIPGIPLMSVG :
Reply | low class

Ask | Band for MARRRLPDRPPNGIG ?
Reply | middle class

Ask | Field: class (SPOT peptide array binding signal intensity) — entry: AIPPPVPNRPGGTTN
Reply | low class

Ask | Looking at NAGIRPKFILALNDE , which class would you pick?
Reply | middle class
